System: K4 kissing-loop RNA reporter;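 further: bound reporter read as fluorescence of individual clusters on recovered sequencing chips by microscopy, with normalized cluster intensities fitted with a binding model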
Assay: apparent KD of K4 kissing-loop reporter; higher = weaker reporter binding
Conditions: Eterna round: R107; input ligand: none
endpointName: apparent KD of K4 kissing-loop reporter (nM)
Answers are plain numbers, in nM.

Give measured apparent KD of K4 kissing-loop reporter for every item shown.
1. AAAUAUUCGAGUGAUGUUCGAUAAAUUUCAGAGGAUAUGCUUAAAAGCAGAAGGCUGUAUUUCUAUUUGUUAUGAAAUUUUAUAA [JR_ExcFMNA_Sub003]
2. CGUGGUGCUCGCCAGCUGUGCGAGCGGUGGGAGGAUAUGUCGCGAGACAGAAGGCCCAGUGAUGUUGGGCAGGCUCGUAGAUCAA [Orbemaed]
3. UGUUUUUACUGAAGGAGCGGCAAUUGAUACGUAGAUAUAGUGAUGUUAUAUAAGAUAGAGAGCCAGGUAGGUCGCAGAGUGUUUC [ExArgB.aA]
4. CACAAUUAAUUACAGUGAUGUUGUAAUCUGCGAGGACCGGUACGGCCGCCACUCGGGCUUGUAGGGCGCCCACAUUCUUAUACUA [theeternabot_sameState_KL_Trp_A_29]
5. UUAGAGAUCUCAGGAUAUGAGUGAUGUUGGUGUCAAGAUCUGAGAUAGAAUUCUAUCUCAGAUCAAUCAGAAGGGAGAUCUCAUU [AK2.2 Exc FMN B]
6. UACUGGGCGAGUGAUGUUUGCUCAUGUGAUACCAGUGCCAUCCAACACCCUUGGCAGCAUGCGGGCAGUGAUGUUGUCCAUGGAA [Exclusion Theophylline A GF10]

Response:
1: 87.3; 2: 121; 3: 194; 4: 426; 5: 483; 6: 667
